- MEASUREMENT NOTES: Measurement of solubility (shake-flask method)
- Assay type: physicochemical
- CONDITION: pH 6.8, fassgf or other biorelevant, thermodynamic from solid; second fluid containing 20 mM sodium glycochenodeoxycholate, 37° C., shaken 2 hr; read-out: solubility JP2/GCDC
OUTCOME MEASURE: solubility at 2 h (µg/mL)
One number for each entry, in µg/mL.

Give reported solubility at 2 h value for C=CC(=O)N1CC[C@H](Oc2nc(-c3n[nH]c(=O)[nH]3)cc3ccccc23)C1 [compound (A)]
35.6

* * *

- MEASUREMENT NOTES: physchem
OUTCOME MEASURE: pKa
Answers are plain numbers.

Given "O=C(O)c1cc(O)ccc1O" , respond with its pKa.
3.23

Hello, the source for this data is patent US10836745B2, in case you need it.
